- Tested on: DIV17
- test details: qHTS profiling for inhibitors of Plasmodium falciparum proliferation (AID 504749); further: nearly all actives have a fitted effect of over 60% in size
- protocol conditions: P. falciparum in erythrocytes, SYBR Green DNA, 72 h; series mostly up to 28.7 µM
Records with an inconclusive call do not appear. The source made the active and inactive calls. The call rests on the fitted dose curve; in most records, active means well fitted inhibition curve with a large enough effect; inconclusive means small, poorly fitted or top-dose-only effect; inactive means flat fitted curve, though single readings scatter.
Mark one answer only. Choices: active, inactive

Study these solved cases before continuing.
compound	cat
CC(C)C[C@H]1C(=O)N2CCCC2[C@]2(O)O[C@](NC(=O)[C@@H]3C=C4c5cccc6[nH]c(Br)c(c56)C[C@H]4N(C)C3)(C(C)C)C(=O)N12 (some centres undefined)	active
CC(C)(C)[C@]1(O)CCN2CC3c4ccccc4CCc4cccc(c43)[C@@H]2C1 (some centres undefined)	active
CN1C(=O)CCC1c1cccnc1 (centres undefined)	inactive

Attention now shifts to the item below.
Q) Hey, what did the test say about `Oc1ccc(/C=C\c2cc(O)cc(O)c2)cc1` ?
A) inactive
